# credit: patent US20230183314A1

- system: T1, human prostate specific membrane antigen (PSMA) (human, UniProt Q04609 1-750)
- T1 construct: Endogenous PSMA on the human prostate cancer cell lines LNCaP, 22Rv1, MDA-PCA-2B and VCAP; also called human PSMA
- T1 sequence (Q04609 whole entry): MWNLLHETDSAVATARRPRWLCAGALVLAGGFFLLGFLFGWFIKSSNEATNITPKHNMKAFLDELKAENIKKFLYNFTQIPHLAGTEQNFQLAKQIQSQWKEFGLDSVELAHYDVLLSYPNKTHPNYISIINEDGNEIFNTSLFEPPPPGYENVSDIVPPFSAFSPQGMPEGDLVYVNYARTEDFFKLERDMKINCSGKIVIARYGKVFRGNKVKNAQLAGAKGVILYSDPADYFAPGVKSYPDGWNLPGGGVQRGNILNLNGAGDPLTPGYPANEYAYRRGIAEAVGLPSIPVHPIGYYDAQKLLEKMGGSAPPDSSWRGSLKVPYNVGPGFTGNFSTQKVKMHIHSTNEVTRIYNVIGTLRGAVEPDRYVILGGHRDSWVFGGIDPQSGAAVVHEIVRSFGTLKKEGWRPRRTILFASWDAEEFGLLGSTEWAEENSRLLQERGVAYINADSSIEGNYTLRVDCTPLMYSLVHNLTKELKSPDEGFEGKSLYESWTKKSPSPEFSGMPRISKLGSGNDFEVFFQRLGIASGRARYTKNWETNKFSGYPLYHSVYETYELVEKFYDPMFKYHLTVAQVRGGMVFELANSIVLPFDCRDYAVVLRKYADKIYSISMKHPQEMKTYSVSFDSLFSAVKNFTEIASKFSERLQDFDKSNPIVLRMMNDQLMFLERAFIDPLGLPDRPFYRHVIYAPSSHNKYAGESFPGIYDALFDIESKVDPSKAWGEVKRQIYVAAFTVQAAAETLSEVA
- assay.method.text: flow cytometry, direct binding to LNCaP cells (relative cell binding, MFI, against concentration in nM); the table under the plot labels the half-maximal concentration IC50; unit taken from the concentration axis
IC50 reference
Please give a number only; it is taken to be in nM.

Could you tell me which IC50 is on file for P258AR6P1071_D02 (designed binder, not shown: C-terminal poly-histidine tag) LPAPKNLVVSRVTEDSARLSWAIDEQRDWFESFLIQYQESEKVGEAIVLTVPGSERSYDLTGLKPGTEYTVSIYGVYHVYRSNPLSAIFTT ?
1.32

Kindly consider the entry below.
Could you tell me which IC50 is on file for P233FR9_H10 PSMA binding FN3 domain (designed binder, His-tagged, expressed in E. coli; also called H10 centyrin; not shown: C-terminal poly-histidine tag) LPAPKNLVVSRVTEDSARLSWTAPDAAFDSFAIGYWEWDDDGEAIVLTVPGSERSYDLTGLKPGTEYPVYIAGVKGGQWSFPLSAIFTT ?
0.598
